Assay: recombinant barcode read abundance after kanamycin selection (control-corrected) (log10(CPM+1)); higher = more efficient recombination; sequences stand for … in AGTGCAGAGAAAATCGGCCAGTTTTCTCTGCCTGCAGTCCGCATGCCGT…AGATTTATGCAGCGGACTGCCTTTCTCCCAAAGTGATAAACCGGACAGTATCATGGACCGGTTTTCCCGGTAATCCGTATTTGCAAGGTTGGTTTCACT; site = the 11-nt target
outcome-measure: recombinant barcode read abundance (log10)
Enter a number only.

Past entries and their recorded results:
>>> print(df.to_string())
                           sequence_content  assay_value
0  AGTATCGCTTGGGTTCTAACCTGTTGCGG (site AGTATCGCTCC)         1.11
1  GACTGCCCTTGGGTTCTAACCTGTTGCCT (site GGCTGCCCTAG)       0.0269
2  GGGGCGGCTTGGGTTCTAACCTGTTGCCT (site GGGGCGGCTAG)          1.8
3  ACTTGAACTTGGGTTCTAACCTGTTGCCT (site ACATGAACTAG)        0.419

Then this sequence:
Exercise: Could you share which recombinant barcode read abundance (log10) value was measured for AGCGGCCCTTGGGTTCTAACCTGTTGCCT (site AGCGGGCCTAG) ?
Solution: 0.0662

* * *

Assay: recombinant barcode read abundance after kanamycin selection (control-corrected) (log10(CPM+1)); higher = more efficient recombination; sequences stand for … in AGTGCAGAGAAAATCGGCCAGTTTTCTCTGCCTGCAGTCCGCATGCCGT…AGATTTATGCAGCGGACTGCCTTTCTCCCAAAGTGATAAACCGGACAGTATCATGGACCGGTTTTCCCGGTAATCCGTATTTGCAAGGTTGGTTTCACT; site = the 11-nt target
outcome-measure: recombinant barcode read abundance (log10)
Enter a number only.

Exercise: Could you share which recombinant barcode read abundance (log10) value was measured for GGCTACCCTTGGGTTCTAACCTGTTGCAA (site GGCTACCCTTT) ?
Solution: 0.774

* * *

Listed below: recombinant UMI read abundance (log10) values for each entry.
Assay: recombinant UMI read abundance after kanamycin selection (control-corrected) (log10(CPM+1)); higher = more efficient recombination; extreme values may be limits of the assay; sequences stand for … in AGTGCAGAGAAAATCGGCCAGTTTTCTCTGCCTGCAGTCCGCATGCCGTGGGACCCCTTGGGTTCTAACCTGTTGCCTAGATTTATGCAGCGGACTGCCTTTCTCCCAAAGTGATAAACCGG…AGGTTGGTTTCACT; site = the 11-nt donor
Enter a number only.

Past entries and their recorded results:
>>> print(df.to_string())
                           sequence_content  assay_value
0  CGGTATCCATGGACCGGTTTTCCCGGTAATCCGTATTTGTT (site CGGGATCCTAA)       0.0113
1  CCCATACCATGGACCGGTTTTCCCGGTAATCCGTATTTGTC (site CCCATATCTGA)            0

Exercise: Could you share which recombinant UMI read abundance (log10) value was measured for CTCCGTACATGGACCGGTTTTCCCGGTAATCCGTATTTGAG (site CTCCGTACTCT) ?
Solution: 0.509

Exercise: Same read-out for CGTGGAACATGGACCGGTTTTCCCGGTAATCCGTATTTGTT (site CGTGGGACTAA) ?
Solution: 0.0232

Exercise: Same read-out for CAATGAGCATGGACCGGTTTTCCCGGTAATCCGTATTTGGG (site CAATGAGCTCC) ?
Solution: 0.779

Exercise: Same read-out for ACTGGAACATGGACCGGTTTTCCCGGTAATCCGTATTTGAG (site ACTAGAACTCT) ?
Solution: 1.69

Exercise: Same read-out for AGGTTGCCATGGACCGGTTTTCCCGGTAATCCGTATTTGTG (site AGGTTTCCTCA) ?
Solution: 0.00563

Exercise: Same read-out for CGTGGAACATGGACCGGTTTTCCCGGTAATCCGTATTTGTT (site CGTGGACCTAA) ?
Solution: 0.071

Exercise: Same read-out for AAGCACGCATGGACCGGTTTTCCCGGTAATCCGTATTTGGC (site AAGCACGCTTC) ?
Solution: 0.476

Exercise: Same read-out for TGGCGGGCATGGACCGGTTTTCCCGGTAATCCGTATTTGGC (site TGGCGGGCTGC) ?
Solution: 1.79

Exercise: Same read-out for GTGGAGGCATGGACCGGTTTTCCCGGTAATCCGTATTTGTG (site GTGGAGGCTAA) ?
Solution: 0.431

Exercise: Same read-out for CGATAGACATGGACCGGTTTTCCCGGTAATCCGTATTTGCC (site CGATAGACTGG) ?
Solution: 2.96

Exercise: Same read-out for GTATTCACATGGACCGGTTTTCCCGGTAATCCGTATTTGTA (site GTATACACTTA) ?
Solution: 0.154

* * *

Test: recombinant barcode read abundance after kanamycin selection (control-corrected) (log10(CPM+1)); higher = more efficient recombination; sequences stand for … in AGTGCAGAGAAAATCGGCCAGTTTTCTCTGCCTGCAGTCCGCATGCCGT…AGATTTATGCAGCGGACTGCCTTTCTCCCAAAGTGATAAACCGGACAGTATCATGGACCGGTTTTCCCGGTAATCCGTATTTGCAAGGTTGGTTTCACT; site = the 11-nt target
Rule: recombinant barcode read abundance (log10) of 0.4 or more gives t; anything lower gives f.

                           sequence_content  class
0  AGGAACTCTTGGGTTCTAACCTGTTGCTT (site AGGAACTCTAA)      t
1  AGACTCCCTTGGGTTCTAACCTGTTGCCT (site AGCCTCCCTAG)      f
2  CTAGATGCTTGGGTTCTAACCTGTTGCGA (site AGTTCATCTAT)      f
3  TGCTTCCCTTGGGTTCTAACCTGTTGCGG (site TGGTGCCCTCC)      f
4  ACCTTAGCTTGGGTTCTAACCTGTTGCGG (site ACCTTAGCTCC)      t
5  TCCCTTCCTTGGGTTCTAACCTGTTGCCT (site TCCCTTCCTAG)      f

Exercise: Reported recombinant barcode read abundance (log10) reaches at least 0.4 for CAAGACCCTTGGGTTCTAACCTGTTGCCT (site CACGACCCTAG) ?
Solution: t

Exercise: Same read-out for TCATAGCCTTGGGTTCTAACCTGTTGCTG (site TCATAGCCTCA) ?
Solution: t

Exercise: Same read-out for CGAGTGACTTGGGTTCTAACCTGTTGCAG (site CGAGTGACTCT) ?
Solution: t

Exercise: Same read-out for CGAACTACTTGGGTTCTAACCTGTTGCTT (site CGAACTACTAT) ?
Solution: f

* * *

Listed below: recombinant UMI read abundance (log10) values for each entry.
Assay: recombinant UMI read abundance after kanamycin selection (control-corrected) (log10(CPM+1)); higher = more efficient recombination; extreme values may be limits of the assay; sequences stand for … in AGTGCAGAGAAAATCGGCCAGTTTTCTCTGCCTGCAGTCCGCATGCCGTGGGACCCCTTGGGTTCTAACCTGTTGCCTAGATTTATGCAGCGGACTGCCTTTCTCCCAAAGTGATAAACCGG…AGGTTGGTTTCACT; site = the 11-nt donor

Past entries and their recorded results:
In [3]: df
Out[3]:
                           sequence_content                         outcome_measure  assay_value
0  CGCCTATCATGGACCGGTTTTCCCGGTAATCCGTATTTGGC (site CGCCTATCTGC)  recombinant UMI read abundance (log10)         1.93
1  TAGTCAACATGGACCGGTTTTCCCGGTAATCCGTATTTGTT (site TAGTCAACTAA)  recombinant UMI read abundance (log10)       0.0293
2  GACAAACCATGGACCGGTTTTCCCGGTAATCCGTATTTGTT (site GACAAACCTAT)  recombinant UMI read abundance (log10)            0
3  GCTTGGACATGGACCGGTTTTCCCGGTAATCCGTATTTGAC (site GCTTGGACTGT)  recombinant UMI read abundance (log10)         2.39
4  GCGAAGCCATGGACCGGTTTTCCCGGTAATCCGTATTTGAG (site GCGAAGCCTCC)  recombinant UMI read abundance (log10)       0.0267
5  AACCGTGCATGGACCGGTTTTCCCGGTAATCCGTATTTGTG (site AACCGTGCTCA)  recombinant UMI read abundance (log10)       0.0421
6  GCCTAGACATGGACCGGTTTTCCCGGTAATCCGTATTTGGG (site ACCTAGACTCC)  recombinant UMI read abundance (log10)        0.186
7  CCTCTCTCATGGACCGGTTTTCCCGGTAATCCGTATTTGTA (site CTTCTCTCTTA)  recombinant UMI read abundance (log10)       0.0036
8  CCGTCGACATGGACCGGTTTTCCCGGTAATCCGTATTTGGG (site CAGTCGACTCC)  recombinant UMI read abundance (log10)         0.01
9  ATTGCGGCATGGACCGGTTTTCCCGGTAATCCGTATTTGCT (site CTTGCGGCTAG)  recombinant UMI read abundance (log10)        0.161

Exercise: Could you share which recombinant UMI read abundance (log10) value was measured for GCGAACCCATGGACCGGTTTTCCCGGTAATCCGTATTTGAA (site GCGAACCCTTT) ?
Solution: 2.49

Exercise: Same read-out for CTAATAGCATGGACCGGTTTTCCCGGTAATCCGTATTTGAT (site CTAATAGCTAT) ?
Solution: 2.21

Exercise: Same read-out for CAGGGCCCATGGACCGGTTTTCCCGGTAATCCGTATTTGTT (site CACGGCCCTAA) ?
Solution: 0.025

Exercise: Same read-out for TCGAAAACATGGACCGGTTTTCCCGGTAATCCGTATTTGCT (site ACGAAAACTAG) ?
Solution: 0

Exercise: Same read-out for CGCGAGCCATGGACCGGTTTTCCCGGTAATCCGTATTTGGA (site CGCGAGCCTTC) ?
Solution: 0.181

Exercise: Same read-out for CAATGAGCATGGACCGGTTTTCCCGGTAATCCGTATTTGGG (site GAATGAGCTCC) ?
Solution: 0.00334

Exercise: Same read-out for CGATGATCATGGACCGGTTTTCCCGGTAATCCGTATTTGCT (site CGATAATCTAG) ?
Solution: 2.33

Exercise: Same read-out for ACGTAGCCATGGACCGGTTTTCCCGGTAATCCGTATTTGCC (site ACGTAGCCTGG) ?
Solution: 0.17
